Assign # HTR/20 min at Most Efficacious Dose to each entry below.
System: C57BL/6 mice
protocol-notes: Automated mouse head twitch response (HTR) assay (video tracking)
Assay type: in vivo
run-parameters: sc, 20 min recording, mean, at each compound's most efficacious dose (35*, 43*, 44*: suppressed below vehicle 14.5, dose is that of least suppression)
Field: numeric (HTR/20 min). Do not append units.

Q: Fill in reported # HTR/20 min at Most Efficacious Dose for this entry: CC[C@@H](C)NC(=O)[C@@H]1C=C2c3cccc4[nH]cc(c34)C[C@H]2N(C)C1
A: 23.625

Q: Kindly indicate its recorded # HTR/20 min at Most Efficacious Dose. Item: CCN(CC)C(=O)[C@@H]1C=C2c3cccc4[nH]cc(c34)C[C@H]2N(Cc2cccc(OC)c2)C1
A: 7.62

Q: Let me know recorded # HTR/20 min at Most Efficacious Dose for CC[C@@H](C)NC(=O)[C@@H]1C=C2c3cccc4[nH]c(Br)c(c34)C[C@H]2N(C)C1 , thanks.
A: 6.5

Q: Quote # HTR/20 min at Most Efficacious Dose reported for CCN(C)C(=O)[C@@H]1C=C2c3cccc4[nH]cc(c34)C[C@H]2N(Cc2ccccc2)C1 please.
A: 6.625

Q: For the compound CCN(CC)C(=O)[C@@H]1C=C2c3cccc4[nH]cc(c34)C[C@H]2NC1 , give its reported # HTR/20 min at Most Efficacious Dose.
A: 29.625

Q: Please indicate # HTR/20 min at Most Efficacious Dose recorded for C=CCN1C[C@H](C(=O)N[C@H](C)CC)C=C2c3cccc4[nH]cc(c34)C[C@H]21
A: 21.375

Q: Give me measured # HTR/20 min at Most Efficacious Dose, please, for this compound: CCCN1C[C@H](C(=O)N(CC)CC)C=C2c3cccc4[nH]cc(c34)C[C@H]21
A: 20.625

Q: Using the record for CCN(CC)C(=O)[C@@H]1C=C2c3cccc4[nH]cc(c34)C[C@H]2N(Cc2ccc(OC)cc2)C1 , state its measured # HTR/20 min at Most Efficacious Dose.
A: 9.50

Q: For the compound CCC(CC)NC(=O)[C@@H]1C=C2c3cccc4[nH]c(Br)c(c34)C[C@H]2N(C)C1 , report # HTR/20 min at Most Efficacious Dose.
A: 4.38

Q: Return the recorded # HTR/20 min at Most Efficacious Dose value; entry: CCN(CC)C(=O)[C@@H]1C=C2c3cccc4[nH]c(Br)c(c34)C[C@H]2N(C)C1
A: 2.38

Q: Read the entry CCN(CC)C(=O)[C@@H]1C=C2c3cccc4[nH]cc(c34)C[C@H]2N(Cc2ccccc2)C1 and write its reported # HTR/20 min at Most Efficacious Dose.
A: 11.25

====

measured-target: 5-HT2A receptor (Homo sapiens, UniProt P28223)
Sequence (P28223 whole entry): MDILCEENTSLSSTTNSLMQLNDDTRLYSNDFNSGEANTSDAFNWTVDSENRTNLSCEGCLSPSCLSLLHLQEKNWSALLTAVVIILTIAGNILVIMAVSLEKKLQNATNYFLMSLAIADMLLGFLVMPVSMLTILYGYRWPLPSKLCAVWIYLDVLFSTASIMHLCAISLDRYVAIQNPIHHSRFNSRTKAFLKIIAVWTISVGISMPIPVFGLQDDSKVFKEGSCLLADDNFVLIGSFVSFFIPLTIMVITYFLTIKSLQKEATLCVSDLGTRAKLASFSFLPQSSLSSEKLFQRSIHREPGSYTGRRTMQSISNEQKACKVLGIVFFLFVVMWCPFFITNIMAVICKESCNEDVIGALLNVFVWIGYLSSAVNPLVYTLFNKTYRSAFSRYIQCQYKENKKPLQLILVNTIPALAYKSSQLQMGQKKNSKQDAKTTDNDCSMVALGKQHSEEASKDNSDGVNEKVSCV
protocol-notes: biochemical
Type: binding
Set-up: expressed in transfected cells; host or cells: HEK293, stably transfected
run-parameters: [3H]ketanserin 1 nM; HEK293 stable cell line; 1 h, 25 °C
# label = YES if Ki < 20 nM else NO

Q: # strict comparison: is reported Ki < 20 nM? input = CCNC(=O)[C@@H]1C=C2c3cccc4[nH]cc(c34)C[C@H]2N(Cc2cccc(OC)c2)C1
A: YES

Q: Regarding CCN(CC)C(=O)[C@@H]1C=C2c3cccc4[nH]cc(c34)C[C@H]2N(Cc2ccccc2)C1 , kindly confirm whether its Ki is beneath 20 nM.
A: YES

Q: # check: Ki < 20 nM for CCN(CC)C(=O)[C@@H]1C=C2c3cccc4[nH]cc(c34)C[C@H]2N(Cc2cccc3ccccc23)C1
A: NO

Q: Report whether reported Ki is lower than 20 nM (strictly) for CCN(CC)C(=O)[C@@H]1C=C2c3cccc4[nH]cc(c34)C[C@H]2N(Cc2cccc(O)c2)C1
A: YES

Q: Consider the molecule CCN(CC)C(=O)[C@H]1C=C2c3cccc4[nH]cc(c34)C[C@H]2N(CC2CCCCC2)C1 [Compound 89a] . Is its Ki strictly less than 20 nM?
A: NO

Q: Ki under 20 nM? Item: CCCN(CC)C(=O)[C@@H]1C=C2c3cccc4[nH]cc(c34)C[C@H]2N(Cc2ccccc2)C1
A: YES

Q: Hello, I'm reviewing records and need to know if Ki of CCN(CC)C(=O)[C@H]1C=C2c3cccc4[nH]cc(c34)C[C@H]2N(Cc2ccc(F)c(F)c2)C1 [Compound 54a] is below 20 nM. Could you check?
A: NO
